# System: NCI-H460 lung
# test.description: NCI-60 one-dose screen, 48 h (100 = growth as untreated, 0 = no growth, -100 = all killed)
# conditions.used: 10 µM unless noted
The panel holds about 83,000 compounds, 20% with a hit somewhere; the sample as a whole holds those more often.
# binning rule on growth: zone 1: < 20%; zone 2: ≥ 20% and < 80%; zone 3: ≥ 80%

>>> group("C#C[C@@]1(O)[C@@H](CO)O[C@@H](n2cc(F)c3c(N)ncnc32)[C@@H]1O")
"zone 1"

Next molecule, please.
State the class of the molecule shown: COC(=O)/C=C/c1cc(OC(C)=O)c2c(c1)C(C(=O)OC)C(c1ccc(OC(C)=O)c(OC(C)=O)c1)O2 (configuration not stated)
zone 1

###

Property: growth; scope: individual molecules
# Test system: UACC-257 melanoma
# test.description: NCI-60 one-dose screen, 48 h (100 = growth as untreated, 0 = no growth, -100 = all killed)
# conditions.used: 10 µM unless noted
The panel holds about 83,000 compounds, 20% with a hit somewhere; the sample as a whole holds those more often.
Value expressed in %; do not type the unit.

Solved entries (count: 2):
>>> meas_value("OCCNc1nc(NCCO)nc(Nc2ccc(C3=NN(c4cc(Cl)cc(Cl)c4)C(c4ccccc4)C3)cc2)n1 (centres undefined)")
91.2
>>> meas_value("NC[C@@H]1CCN(c2cc3c(cc2F)c(=O)n(N)c(=O)n3Cc2ccc(-c3ccccc3)cc2)C1")
112

Entry CC(=O)Nc1c(C(=O)Nc2ccccc2)sc2nc3c(cc12)C(OC(C)=O)CCC3 (centres undefined) under UACC-257 melanoma had growth of 64.8

Entry "O=C(/C(=C/c1ccc([N+](=O)[O-])cc1)SCc1ccc(F)cc1)c1ccc(Cl)cc1" under UACC-257 melanoma had growth of 87.4

Entry "Cc1cc(NC(=O)CNc2nc(Oc3ccc(F)cc3)nc(-c3ccc(F)cc3)n2)ccc1Cl" under UACC-257 melanoma had growth of 101

###

# Tested on: LOX IMVI melanoma
# test.description: NCI-60 one-dose screen, 48 h (100 = growth as untreated, 0 = no growth, -100 = all killed)
# conditions.used: 10 µM unless noted
This is part of a sample that, as a whole, favours compounds with a hit. Of some 83,000 tested, about 20% had one in any assay.
Property: growth; scope: individual molecules
Value expressed in %; do not type the unit.

>>> meas_value("Cc1[nH]c2ncnc(Oc3ccc(NC(=O)Nc4ccc(Cl)c(C(F)(F)F)c4)cc3)c2c1C")
43.4
>>> meas_value("NS(=O)(=O)c1ccc(C2C3=C(CCCC3=O)OC3=C2C(=O)c2ccccc2C3=O)cc1 (centres undefined)")
-72.7
>>> meas_value("COC(=O)c1oc2c(C(=O)/C=C/c3ccc(OC)cc3)c(OCCCN3CCCCC3)ccc2c1C")
-26.1
>>> meas_value("C#C[C@@]1(O)[C@@H](CO)O[C@@H](n2cc(-c3ccco3)c3c(N)ncnc32)[C@@H]1O")
65.6
>>> meas_value("CC1(C)[C@@H](O)CC[C@]2(C)[C@H]3CC[C@@H]4[C@H]5[C@H](c6cn(-c7ccccc7)nn6)CC[C@]5(CO)CC[C@@]4(C)[C@]3(C)CC[C@@H]12")
95.6

Entry COc1ccc2c(c1)Oc1nc(N)c(C#N)c(N)c1C2Sc1ccc(O)cc1 (centres undefined) under LOX IMVI melanoma had growth of 87.4

Entry "Cc1cccc(C)c1Nc1nnc(-c2ccc(F)cc2)o1" under LOX IMVI melanoma had growth of 95.1

Entry "COc1cc(F)c(-c2nc3c(C)cccc3n2Cc2c(F)cccc2F)c(F)c1" under LOX IMVI melanoma had growth of 87.8

Entry "CCOC(=O)c1c(-c2ccc(O)cc2)c(C#N)c2c(C#N)c(N)nn2c1N" under LOX IMVI melanoma had growth of 55.2

###

# Test system: BT-549 breast
# test.description: NCI-60 one-dose screen, 48 h (100 = growth as untreated, 0 = no growth, -100 = all killed)
# conditions.used: 10 µM unless noted
About 83,000 compounds went through this panel and 20% of them were active in at least one assay; those are over-represented in the sample as a whole.
assay.metric: growth (%)
Value expressed in %; do not type the unit.

Solved entries (count: 3):
>>> meas_value("COc1ccc2oc(=O)cc(-c3c(C#N)c(N)n4nc(N)c(C#N)c4c3C#N)c2c1")
89.3
>>> meas_value("COc1cc(NC(=O)Nc2cnc(Nc3ccc(N4CCOCC4)cc3)nc2Oc2ccc(C(F)(F)F)cc2)cc(OC)c1")
111
>>> meas_value("CCN1CCC[C@H]1c1cc(O)c2c(c1OC)C[C@H]1C[C@H]3[C@H](N)C(=O)C(C(N)=O)=C(O)[C@@]3(O)C(=O)C1=C2O")
-3.73

Lookup result for "COc1cc(/C=C/CO)cc(OC)c1O[C@@H]1O[C@H](CO)[C@@H](O)[C@H](O)[C@H]1O" ; measured growth: 104

###

Property: growth; scope: individual compounds
# System: IGROV1 ovarian
# test.description: NCI-60 one-dose screen, 48 h (100 = growth as untreated, 0 = no growth, -100 = all killed)
# conditions.used: 10 µM unless noted
This is part of a sample that, as a whole, favours compounds with a hit. Of some 83,000 tested, about 20% had one in any assay.
Value expressed in %; do not type the unit.

>>> meas_value("COc1cc(NC(=O)Nc2cnc(Nc3ccc(N4CCOCC4)cc3)nc2Oc2ccc(F)cc2)cc(OC)c1")
94.2

Lookup result for "CNCc1cccc2c1OCCOCCOCCN(CCN1CCOCC1)S(=O)(=O)c1ccc(cc1)-c1cnc(N)c(n1)C(=O)N2" ; measured growth: 47.9

Lookup result for "Cc1[nH]c(N=Nc2ccccc2)nc1N=Nc1ccccc1" ; measured growth: -22.8

Lookup result for "COc1ccc2nc3nc4ccc[nH]c4cc3c2c1" ; measured growth: 69.6

###

# System: OVCAR-5 ovarian
# test.description: NCI-60 one-dose screen, 48 h (100 = growth as untreated, 0 = no growth, -100 = all killed)
# conditions.used: 10 µM unless noted
About 83,000 compounds went through this panel and 20% of them were active in at least one assay; those are over-represented in the sample as a whole. The source made the active and inactive calls. How the source made its calls: active means growth percent below 10; inactive means the rest.
Property: growth; scope: individual compounds

Lookup result for "O=C(N/N=C/C[C@@H]1[C@@H](/C=C/[C@@H](O)COc2cccc(Cl)c2)[C@H](O)C[C@@H]1O)c1ccncc1" ; measured growth: 97.4% (inactive)

Lookup result for "C=C(C)[C@@H]1CC[C@]2(C(=O)n3ccnc3)CC[C@]3(C)[C@H](CC[C@@H]4[C@@]5(C)CCCNC(C)(C)[C@@H]5CC[C@]43C)[C@@H]12" ; measured growth: 74.9% (inactive)

Lookup result for "CC(C)(C)c1nn(-c2ccccc2)c2c1COCN2Cc1ccc(Cl)cc1" ; measured growth: 90% (inactive)

Lookup result for "CCOCc1cc(C(C)(C)C)ccc1O" ; measured growth: 105% (inactive)

Lookup result for "Cc1cc(C)c2nc(Nc3nc(C)c(C)c(=O)[nH]3)nc(C)c2c1" ; measured growth: 48.8% (inactive)

###

Property: growth; scope: individual compounds
# Tested on: BT-549 breast
# test.description: NCI-60 one-dose screen, 48 h (100 = growth as untreated, 0 = no growth, -100 = all killed)
# conditions.used: 10 µM unless noted
Compounds without any hit were thinned out: in the full panel of roughly 83,000, 20% have a hit.
Value expressed in %; do not type the unit.

>>> meas_value("CC(=O)Nc1ccc2c(c1)Cc1cc(F)ccc1-2")
93.8
>>> meas_value("C=C(C)[C@@H]1CC[C@]2(C(=O)N=C=S)CC[C@]3(C)[C@H](CC[C@@H]4[C@@]5(C)CCC(=O)C(C)(C)[C@@H]5CC[C@]43C)[C@@H]12")
47.3
>>> meas_value("C=C1C(=O)O[C@H]2[C@H]1CC/C(COC(=O)c1cccnc1)=C\\CC[C@@]1(C)O[C@@H]21")
68.4
>>> meas_value("N#Cc1ccc(N2Cc3cc(Cl)ccc3OC3=C2C(=O)N(Cc2ccc(F)cc2)C3=O)cc1")
-63.3
>>> meas_value("COc1cc(F)c(-c2nc3c(C)cccc3n2Cc2c(F)cccc2F)c(F)c1")
98.5
>>> meas_value("Cc1cc(C)c2nc(Nc3nc(C)c(C)c(=O)[nH]3)nc(C)c2c1")
9.69
>>> meas_value("Cc1nccc2c3ccc(OCc4cn(-c5ccc(Cl)cc5)nn4)cc3n(CC(C)C)c12")
28.3
>>> meas_value("O=C1NC(SCc2ccc(F)cc2)=N/C1=C/c1cccc(OCc2ccc(Cl)cc2)c1")
87.2

Lookup result for "COc1cc(/C=C/C(=O)c2cccs2)ccc1OCc1ccc(Cl)nc1" ; measured growth: 91.4

###

# System: RXF 393 renal
# test.description: NCI-60 one-dose screen, 48 h (100 = growth as untreated, 0 = no growth, -100 = all killed)
# conditions.used: 10 µM unless noted
The panel holds about 83,000 compounds, 20% with a hit somewhere; the sample as a whole holds those more often.
# binning rule on growth: lower level = under 50%, middle level = from 50% up to 90%, upper level = 90% and over

Take a look at these entries with their results.
>>> group("COc1ccc(-c2nnc(N3CCN(C(=O)CN4CCN(c5ccc(OC)cc5)CC4)CC3)nc2-c2ccc(OC)cc2)cc1")
"lower level"
>>> group("C=C(C)[C@@H]1CC[C@]2(C(=O)N3CCN(C)CC3)CC[C@]3(C)[C@H](CC[C@@H]4[C@@]5(C)C/C(=C/c6ccco6)C(=O)C(C)(C)[C@@H]5CC[C@]43C)[C@@H]12")
"lower level"
>>> group("N#Cc1c(-c2ccc(F)cc2)nc(N=Nc2c(O)[nH]c3ccccc23)nc1N1CCOCC1")
"middle level"
>>> group("COc1cc(-c2nn(-c3ccc(Br)cc3)cc2CO)ccc1O")
"upper level"
>>> group("CS(=O)(=O)O[C@@H]1C(=O)N(c2cc3c4ccccc4ccc3c3ccccc23)[C@H]1c1ccc(F)cn1")
"lower level"
>>> group("O=CN1N=C(c2ccc3c(c2)OCO3)CC1c1cccc(Nc2ccnc3cc(C(F)(F)F)ccc23)c1 (stereo not drawn)")
"middle level"
>>> group("CO[C@@]12C=C[C@@]34CCC(=O)N3c3ccccc3[C@@H](O1)C4C2")
"upper level"
>>> group("CCN1CCN(c2ccc(NC(=O)Nc3nc4ccc(-c5ccccc5OC)cc4s3)cc2)CC1")
"lower level"
>>> group("O=C1NC(c2ccc(F)cc2)N=C2C(c3ccccc3)=NOC12 (stereo not drawn)")
"upper level"
>>> group("Cc1ccc(C(=O)O)o1")
"upper level"

State the class of the compound shown: "COc1ccc(NC(=O)c2sc3nc(C)c(C(C)=O)cc3c2N)cc1"
upper level

State the class of the compound shown: COc1c(O)cc2oc3cc(O[C@@H]4OC(C)[C@@H](O)[C@H](O)C4O)c(CC=C(C)C)c(O)c3c(=O)c2c1CC=C(C)C (stereo partly drawn)
upper level

State the class of the compound shown: "Cc1cc(C)n(-c2nc(-c3cccs3)c(C#N)c(=O)[nH]2)n1"
upper level

State the class of the compound shown: CCOc1ccc(C2N(c3cc(OC)c(OC)c(OC)c3)C(=O)C2(F)F)cc1 (stereo not drawn)
middle level

State the class of the compound shown: "COC(=O)c1oc2c(C(=O)/C=C/c3ccc(OC)cc3)c(OCCCN3CCCCC3)ccc2c1C"
lower level

State the class of the compound shown: "Cc1[nH]c(N=Nc2ccccc2)nc1N=Nc1ccccc1"
lower level

State the class of the compound shown: "O=Cc1[nH]c(Sc2ccccc2)c2ccccc12"
middle level

State the class of the compound shown: "COc1ccc(-c2[nH]c3ccc(OC)cc3c2C=C(C#N)C#N)cc1"
lower level
